Entries below carry reported IC50 on Plasminogen (Homo sapiens).
Sequence (P00747 97-580 limits assumed): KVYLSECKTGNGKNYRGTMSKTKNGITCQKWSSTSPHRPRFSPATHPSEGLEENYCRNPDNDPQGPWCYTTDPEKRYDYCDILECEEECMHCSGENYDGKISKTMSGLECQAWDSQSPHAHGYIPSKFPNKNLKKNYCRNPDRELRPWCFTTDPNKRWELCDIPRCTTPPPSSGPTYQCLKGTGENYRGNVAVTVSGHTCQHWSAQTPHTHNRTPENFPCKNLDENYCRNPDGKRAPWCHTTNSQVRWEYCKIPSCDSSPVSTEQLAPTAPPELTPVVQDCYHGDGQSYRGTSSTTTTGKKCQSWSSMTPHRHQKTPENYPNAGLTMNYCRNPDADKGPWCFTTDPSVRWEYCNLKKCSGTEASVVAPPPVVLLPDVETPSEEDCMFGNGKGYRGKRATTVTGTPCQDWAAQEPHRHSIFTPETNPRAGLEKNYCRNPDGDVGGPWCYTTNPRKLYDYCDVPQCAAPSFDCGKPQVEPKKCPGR
Sequence (P00747 581-810 limits assumed): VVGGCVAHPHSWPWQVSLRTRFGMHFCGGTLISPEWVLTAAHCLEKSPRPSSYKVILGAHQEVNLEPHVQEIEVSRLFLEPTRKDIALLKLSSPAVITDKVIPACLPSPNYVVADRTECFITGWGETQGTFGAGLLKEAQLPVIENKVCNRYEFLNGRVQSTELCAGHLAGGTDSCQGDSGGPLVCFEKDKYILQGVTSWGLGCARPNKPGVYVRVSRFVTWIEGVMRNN
Value expressed in nM; do not type the unit.

input smiles | IC50 / nM
COc1cc(O)c2c(=O)c(OC)c(-c3ccc(O)c(O)c3)oc2c1 | 1500

Continue with the compound presented below.
query: IC50 for `CC(=O)N[C@@H](CC(C)C)C(=O)N[C@@H](CC(C)C)C(=O)N[C@H](C=O)CCCNC(=N)N` ?
result: 1200
